TEST TARGET: MMP-9 (Homo sapiens, UniProt P14780)
Construct: made in house; host or cells: MMP-9-transfected HT1080 cells (spent media)
Sequence (P14780 107-707 limits assumed): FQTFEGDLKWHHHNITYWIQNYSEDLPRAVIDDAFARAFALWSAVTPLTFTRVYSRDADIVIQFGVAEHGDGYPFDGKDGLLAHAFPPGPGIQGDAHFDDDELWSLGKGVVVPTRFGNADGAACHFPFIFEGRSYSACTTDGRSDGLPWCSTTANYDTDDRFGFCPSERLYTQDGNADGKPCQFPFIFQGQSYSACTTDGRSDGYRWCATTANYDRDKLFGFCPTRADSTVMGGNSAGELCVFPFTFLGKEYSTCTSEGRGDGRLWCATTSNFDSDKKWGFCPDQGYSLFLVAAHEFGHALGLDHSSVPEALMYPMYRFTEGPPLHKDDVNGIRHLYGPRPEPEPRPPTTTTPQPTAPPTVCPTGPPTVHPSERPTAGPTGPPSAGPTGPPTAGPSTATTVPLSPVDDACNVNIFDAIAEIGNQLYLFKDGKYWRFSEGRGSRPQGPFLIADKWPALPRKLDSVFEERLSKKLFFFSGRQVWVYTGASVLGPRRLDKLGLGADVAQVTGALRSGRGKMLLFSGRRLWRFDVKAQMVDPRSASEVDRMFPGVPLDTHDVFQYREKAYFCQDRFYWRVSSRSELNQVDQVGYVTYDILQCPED
ASSAY NAME: MMP-9 inhibition (in vitro Ki)
Assay type: biochemical
RECORDED CONDITIONS: Table 9; read-out: MMP-9 Ki (IC-50)
pKi: −log10 of the molar value.
READOUT: pKi

Example results:
N#Cc1ccc(N2CCN(S(=O)(=O)C3(C(=O)NO)CCOCC3)CC2)cc1F; 7.02
O=C(/C=C/C=C/C1CCN(S(=O)(=O)C2(C(=O)NO)CCOCC2)CC1)N1CCOCC1; 5.80
O=C(NO)C1(S(=O)(=O)N2CCC(c3ccc(CCC(F)(F)C(F)(F)F)cn3)CC2)CCN(Cc2ccccc2)CC1; 9.14

A = CN(Cc1ccco1)C(=O)CCCC1CCN(S(=O)(=O)C2(C(=O)NO)CCOCC2)CC1
B = COCC#Cc1ccc(C2CCN(S(=O)(=O)C3(C(=O)NO)CCOCC3)CC2)nc1
Ask | I would appreciate it if you could say which entry, A or B , has the lower pKi value. Give the label under which the chosen entry appears.
Reply | A
